Test: chemical genetic growth profiling, strain panel (AID 1159580);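 further: tested at 20 µM; growth read once vehicle control cultures reached saturation at 30 °C; 1 = growth at the plate median or of vehicle wells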
Settings: S. cerevisiae deletion strains, growth OD, locus YDR502C, strain sam2, stronger effect = lower value
Out of some 5,500 compounds screened, about 2,000 (36%) were called active. Inconclusive results (about 18%) are left out. Some of the results follow.
Recorded Metric: normalized growth
Please reply with the number alone, leaving off any unit.

Exam item: Fill blank: measured normalized growth of the molecule `O=c1cc(-c2ccccc2)oc2cc(O)cc(O)c12` is ____.
Marked response: 0.922

Exam item: Repeat for the following molecule: `CNCCCN1c2ccccc2CCc2ccccc21`
Marked response: 1.01

Exam item: Repeat for the following molecule: `COC(=O)c1c(C)cc(OC(=O)c2c(C)c(Cl)c(O)c(C=O)c2O)c(C)c1O`
Marked response: 0.984

Exam item: Repeat for the following molecule: CC(CCC(=O)O)[C@H]1CCC2C3CC[C@@H]4CCCC[C@]4(C)C3CC[C@@]21C (some centres undefined)
Marked response: 0.979

Further cases:
Exam item: Fill blank: measured normalized growth of the molecule `O=C(O)Cc1cc(I)c(Oc2cc(I)c(O)c(I)c2)c(I)c1` is ____.
Marked response: 0.957

Exam item: Repeat for the following molecule: `Cc1cc(O)c(C=O)c2c1C(=O)Oc1c(COC(=O)/C=C/C(=O)O)c(O)c(C(=O)O)c(C)c1O2`
Marked response: 0.96

Exam item: Repeat for the following molecule: `N[C@H](Cc1cc(I)c(Oc2ccc(O)c(I)c2)c(I)c1)C(=O)O`
Marked response: 0.977

Exam item: Repeat for the following molecule: `CO[C@]12C[C@@H](COC(=O)c3cncc(Br)c3)CN(C)[C@@H]1Cc1cn(C)c3cccc2c13`
Marked response: 1

Exam item: Repeat for the following molecule: `CNC(=O)Oc1ccc2c(c1)[C@]1(C)CCN(C)[C@@H]1N2C`
Marked response: 1.01

---

Experiment: chemical genetic growth profiling, strain panel (AID 1159580)
Conditions: S. cerevisiae deletion strains, growth OD, locus YFR019W, strain FAB1, stronger effect = lower value
Out of some 5,500 compounds screened, about 2,000 (36%) were called active. Not shown: some 18% with an inconclusive outcome. The list shows a part of the results.
Returns: string. Value is 1 if measured normalized growth is below 0.9, and -1 if it is greater than or equal to it.

Look over these answered cases.
Exam item: Hi there! Is normalized growth for `COc1cc(CC/C(C)=N\O)ccc1OCc1ccc(Cl)c(Cl)c1` below 0.9, do you know?
Marked response: 1

Exam item: Repeat for the following compound: `COc1cc(CC/C(C)=N/O)ccc1OCc1ccc(Cl)cc1Cl`
Marked response: -1

Exam item: Repeat for the following compound: `CC(C)(C)C(=O)/C(C#N)=C/c1c(Cl)cccc1Cl`
Marked response: 1

Further cases:
Exam item: Hi there! Is normalized growth for `O=C1/C(=C/c2ccc(C(F)(F)F)cc2)COc2ccccc21` below 0.9, do you know?
Marked response: -1

Exam item: Repeat for the following compound: `Cc1nn(Cc2nnc(SCc3cccc(C(F)(F)F)c3)o2)c(C)c1Br`
Marked response: -1

Exam item: Repeat for the following compound: `C/C(=N/Nc1ccccc1)c1cc(Cl)cc(Cl)c1O`
Marked response: 1

---

Experiment: chemical genetic growth profiling, strain panel (AID 1159580)
Conditions: S. cerevisiae deletion strains, growth OD, locus YHR030C, strain SLT2
Screen size: about 5,500 compounds; about 2,000 (36%) were called active. Not shown: some 18% with an inconclusive outcome. No stated cut-off is given here; in the data, active means normalized growth mostly below about 0.91 (no sharp cut-off); inconclusive means no clear call, values can overlap the other calls; inactive means mostly above about 0.92. The list shows a part of the results.
Reply using exactly one outcome from 1 (yes) = active, 0 (no) = inactive

Exam item: Recorded test call requested for CN(CCC(N)CC(=O)N[C@H]1C=CC(n2ccc(N)nc2=O)O[C@@H]1C(=O)O)C(=N)N (stereo not given in full)
Marked response: 0 (no)

Exam item: Repeat for the following compound: CC(=O)O[C@H]1CC[C@]2(C)C3C(=O)[C@@H](OC(C)=O)[C@@]4(C)C(C[C@@H]5O[C@]6(CCC(C)CO6)[C@@H](C)[C@@H]54)C3CC[C@H]2C1 (stereo not given in full)
Marked response: 0 (no)

Exam item: Repeat for the following compound: C[C@H]1CC2C([C@@H](O)C[C@@]3(C)C2CC[C@]3(O)C(=O)COC(=O)CCC(=O)O)[C@@]2(C)C=CC(=O)C=C12 (stereo not given in full)
Marked response: 0 (no)

Exam item: Repeat for the following compound: `COc1ccc(C(=O)C2CCNCC2)cc1`
Marked response: 0 (no)

Exam item: Repeat for the following compound: `COc1ccc(C(=O)N2CCCC2=O)cc1`
Marked response: 0 (no)

Now look at this entry.
Exam item: Recorded test call requested for `COc1ccc(CCNC(=S)NCCc2ccc(OC)c(OC)c2)cc1OC`
Marked response: 0 (no)

---

Assay: chemical genetic growth profiling, strain panel (AID 1159580)
Conditions: S. cerevisiae deletion strains, growth OD, locus YBL105C, strain PKC1, stronger effect = lower value
Hit rate of the full screen: of about 5,500 compounds, about 2,000 (36%) were called active. Another 18% or so got no clear call; they are omitted. The list shows a part of the results.
Below, each entry is listed alongside its reported normalized growth.
Please reply with the number alone, leaving off any unit.

Exam item: Fill blank: measured normalized growth of the compound `COc1cc(CC/C(C)=N\O)ccc1OCc1ccc(Cl)c(Cl)c1` is ____.
Marked response: 0.964

Further cases:
Exam item: Fill blank: measured normalized growth of the compound `CNC(=O)n1nc(C)c(Cc2csc3ccc(Cl)cc23)c1C` is ____.
Marked response: 0.998

Exam item: Repeat for the following compound: `O=C(CCn1c(=O)oc2ccccc21)Sc1ccc(Cl)cc1Cl`
Marked response: 0.935

Exam item: Repeat for the following compound: Cc1ccc(N2C(=O)CSC2c2ccc(Cl)c(Cl)c2)cc1Cl (centres undefined)
Marked response: 0.974

Exam item: Repeat for the following compound: CC1(C)c2ccccc2N(CCC(N)=O)C12C=Cc1c(ccc3ccccc13)O2 (centres undefined)
Marked response: 0.968

---

Assay: chemical genetic growth profiling, strain panel (AID 1159580);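 further: tested at 20 µM; growth read once vehicle control cultures reached saturation at 30 °C; 1 = growth at the plate median or of vehicle wells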
Details: S. cerevisiae deletion strains, growth OD, locus YDR150W, strain NUM1, stronger effect = lower value
Screen size: about 5,500 compounds; about 2,000 (36%) were called active. Not shown: some 18% with an inconclusive outcome. This is one part of the list.
Recorded Metric: normalized growth
Please reply with the number alone, leaving off any unit.

Exam item: Fill blank: measured normalized growth of the compound `NC(=O)C(=O)O` is ____.
Marked response: 1

Further cases:
Exam item: Fill blank: measured normalized growth of the compound `NC(N)=O` is ____.
Marked response: 1.01

Exam item: Repeat for the following compound: `COc1ccc(CCN(C)CCc2ccc(OC)c(OC)c2)cc1OC`
Marked response: 1.01

Exam item: Repeat for the following compound: `N#Cc1cccc(Cn2c(=O)oc3ccccc32)c1`
Marked response: 0.998

---

Assay: chemical genetic growth profiling, strain panel (AID 1159580);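 further: tested at 20 µM; growth read once vehicle control cultures reached saturation at 30 °C; 1 = growth at the plate median or of vehicle wells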
Conditions: S. cerevisiae deletion strains, growth OD, locus YOR136W, strain idh2
Out of some 5,500 compounds screened, about 2,000 (36%) were called active. Roughly 18% stayed inconclusive and do not appear here. No stated cut-off is given here; in the data, active means normalized growth mostly below about 0.91 (no sharp cut-off); inconclusive means no clear call, values can overlap the other calls; inactive means mostly above about 0.92. Some of the results follow.
Reply using exactly one outcome from active, inactive

Look over these answered cases.
Exam item: Recorded test call requested for CC(CCC(=O)O)[C@H]1CCC2C3CC[C@@H]4CCCC[C@]4(C)C3CC[C@@]21C (stereo not given in full)
Marked response: inactive

Exam item: Repeat for the following molecule: C=C1C2CC[C@@]3(C)[C@H](c4ccoc4)OC(=O)C[C@]13O[C@H]1CC(=O)C(C)(C)C(CC(=O)OC)[C@@]21C (stereo not given in full)
Marked response: inactive

Exam item: Repeat for the following molecule: C=C1C(C2(C)C=CC(=O)C(C)(C)C2CC(=O)OC)CC[C@@]2(C)[C@H](c3ccoc3)OC(=O)C3OC132 (stereo not given in full)
Marked response: inactive

Exam item: Repeat for the following molecule: `Cc1nc2ccccn2c(=O)c1CCN1CCC(C(=O)c2ccc(F)cc2)CC1`
Marked response: inactive

Exam item: Repeat for the following molecule: CC(CCC(=O)O)[C@H]1CCC2C3CC[C@@H]4C[C@H](O)CC[C@]4(C)C3CC[C@@]21C (stereo not given in full)
Marked response: active

Exam item: Repeat for the following molecule: CC(=O)OCC(=O)[C@@]1(O)[C@H](OC(C)=O)CC2C3CCC4=CC(=O)C=C[C@]4(C)[C@@]3(F)[C@@H](O)C[C@@]21C (stereo not given in full)
Marked response: inactive

Further cases:
Exam item: Recorded test call requested for `NC(N)=NCCC[C@@H](NC(=O)[C@@H](N)Cc1ccc(O)cc1)C(=O)O`
Marked response: inactive

Exam item: Repeat for the following molecule: `CN1CCN(C2=Nc3ccccc3Oc3ccc(Cl)cc32)CC1`
Marked response: inactive

Exam item: Repeat for the following molecule: `C[C@@H](N)[C@@H](O)c1ccccc1`
Marked response: inactive

---

Test: chemical genetic growth profiling, strain panel (AID 1159580);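 further: tested at 20 µM; growth read once vehicle control cultures reached saturation at 30 °C; 1 = growth at the plate median or of vehicle wells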
Details: S. cerevisiae deletion strains, growth OD, locus YNL071W, strain lat1, stronger effect = lower value
About 2,000 (36%) of roughly 5,500 compounds were called active. Not shown: some 18% with an inconclusive outcome. The list shows a part of the results.
Below, each entry is listed alongside its reported normalized growth.
Please reply with the number alone, leaving off any unit.

Exam item: Fill blank: measured normalized growth of the molecule `NNCCc1ccccc1` is ____.
Marked response: 1.01

Exam item: Repeat for the following molecule: `CC12CC3CC(C)(C1)CC(N)(C3)C2`
Marked response: 0.986

Exam item: Repeat for the following molecule: CCCCS(=N)(=O)CCC(N)C(=O)O (stereo not drawn)
Marked response: 0.982

Exam item: Repeat for the following molecule: CC(CN1c2ccccc2Sc2ccccc21)N(C)C (stereo not drawn)
Marked response: 0.969

Exam item: Repeat for the following molecule: `COc1c2ccccc2nc2occc12`
Marked response: 0.914

Further cases:
Exam item: Fill blank: measured normalized growth of the molecule `CN(C(=O)CN(CCO)CC(=O)N(C)C(C)(C)Cc1ccccc1)C(C)(C)Cc1ccccc1` is ____.
Marked response: 1.01

Exam item: Repeat for the following molecule: CC1(C)C(O)CC(O)C2(C)C1CC(O)C1(C)C2CCC2(C)C(c3ccoc3)OC(=O)C3OC321 (stereo not drawn)
Marked response: 0.998

Exam item: Repeat for the following molecule: `COC(=O)CCCOc1ccc(Cl)cc1Cl`
Marked response: 0.967

Just for reference, PubChem BioAssay AID1159580 is where these values come from.
